# System: MCF10A
# method-summary: 5+ nucleoli phenotype percent effect (relative to siNT 0% and siKIF11 100%); higher = more cells with five or more nucleoli
# particulars: 20 nM; 72 h
Label rule, in plain words: 5+ nucleoli phenotype percent effect of 10% and up is Fulfilled, under 10% is Not fulfilled.

Could you please find out whether UUGAGGAAAAGAUGGUCUUAUU [hsa-miR-3915] has 5+ nucleoli phenotype percent effect that meets 10% or exceeds it?
Not fulfilled

Test whether the sequence CCAGUCCUGUGCCUGCCGCCU [hsa-miR-1910] records 5+ nucleoli phenotype percent effect of 10% or higher.
Not fulfilled

Determine whether measured 5+ nucleoli phenotype percent effect meets or exceeds 10% for CCAAGGAAGGAGGCUGGACAUC [hsa-miR-6830-5p]
Not fulfilled

Assess whether reported 5+ nucleoli phenotype percent effect for AUGCGAGGAUGCUGACAGUG [hsa-miR-4737] sits at 10% or higher.
Not fulfilled

For this sequence, is measured 5+ nucleoli phenotype percent effect 10% or higher? AGUGUGGCUUUCUUAGAGC [hsa-miR-644a]
Not fulfilled

Is it the case that UCACAAGUCAGGCUCUUGGGAC [hsa-miR-125b-2-3p] has 5+ nucleoli phenotype percent effect reaching or exceeding 10%?
Not fulfilled

Given GUGUUGAAACAAUCUCUACUG [hsa-miR-653] , state whether its 5+ nucleoli phenotype percent effect is at least 10%.
Fulfilled

5+ nucleoli phenotype percent effect >= 10% for UUAGCCAAUUGUCCAUCUUUAG [hsa-miR-4662a-5p] ?
Not fulfilled

I'd appreciate it if you could say whether CCAAUUACCACUUCUUU [hsa-miR-4275] has 5+ nucleoli phenotype percent effect at least equal to 10%.
Fulfilled

Does 5+ nucleoli phenotype percent effect meet or surpass 10% for GGAUUCCUGGAAAUACUGUUCU [hsa-miR-145-3p] ?
Not fulfilled

# bool: 5+ nucleoli phenotype percent effect of CAAGCUCGCUUCUAUGGGUCUG [hsa-miR-99a-3p] >= 10%
Not fulfilled

Say whether AGUUUUGCAGGUUUGCAUUUCA [hsa-miR-19b-2-5p] shows 5+ nucleoli phenotype percent effect of 10% or more.
Not fulfilled

Decide: is the reported value of 5+ nucleoli phenotype percent effect for GAGGGCAUGCGCACUUUGUCC [hsa-miR-4761-3p] equal to or greater than 10%?
Not fulfilled

Tell me whether 5+ nucleoli phenotype percent effect is at least 10% here: CCUCACCACCCCUUCUGCCUGCA [hsa-miR-6511b-3p]
Fulfilled

Reported 5+ nucleoli phenotype percent effect at or above 10%? CUGGAUGGCUCCUCCAUGUCU [hsa-miR-432-3p]
Not fulfilled

Does the sequence GAAGAACUGUUGCAUUUGCCCU [hsa-miR-4511] have recorded 5+ nucleoli phenotype percent effect that is 10% or more?
Fulfilled

# bool: 5+ nucleoli phenotype percent effect of GGGCUGGGGCGCGGGGAGGU [hsa-miR-5787] >= 10%
Fulfilled

Reported 5+ nucleoli phenotype percent effect reaches at least 10% for AAAGGUCAUUGUAAGGUUAAUGC [hsa-miR-3974] ?
Not fulfilled

Check if 5+ nucleoli phenotype percent effect >= 10% (inclusive). Item: AGGGGGUAGAAAGUGGCUGAAG [hsa-miR-6835-5p]
Not fulfilled

Has AUAUGGGUUUACUAGUUGGU [hsa-miR-3115] a recorded 5+ nucleoli phenotype percent effect greater than or equal to 10%?
Not fulfilled

Could you tell me if the measured 5+ nucleoli phenotype percent effect of GUGAAGGCCCGGCGGAGA [hsa-miR-6126] reaches 10% or more?
Not fulfilled

Test whether the sequence AAAACUAGGACUGUGUGGUGUA [hsa-miR-7844-5p] records 5+ nucleoli phenotype percent effect of 10% or higher.
Not fulfilled

Reported 5+ nucleoli phenotype percent effect reaches at least 10% for UACCCAGUCUCCGGUGCAGCC [hsa-miR-3130-5p] ?
Not fulfilled

Has CAUCUUCCAGUACAGUGUUGGA [hsa-miR-141-5p] a recorded 5+ nucleoli phenotype percent effect greater than or equal to 10%?
Not fulfilled

Determine whether measured 5+ nucleoli phenotype percent effect meets or exceeds 10% for CGGGAGCUGGGGUCUGCAGGU [hsa-miR-6726-5p]
Fulfilled

Confirm if 5+ nucleoli phenotype percent effect reported for the sequence AAGCCCUUACCCCAAAAAGCAU [hsa-miR-129-2-3p] is 10% or above.
Not fulfilled

Please tell me: is the sequence UCGGCCUGACCACCCACCCCAC [hsa-miR-1234-3p] at or over 10% in terms of 5+ nucleoli phenotype percent effect?
Fulfilled

Hi team, for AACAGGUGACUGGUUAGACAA [hsa-miR-552] , is the recorded 5+ nucleoli phenotype percent effect at or above 10%?
Fulfilled

Given UUGUGGGUGGGCAGAAGUCUGU [hsa-miR-6759-5p] , state whether its 5+ nucleoli phenotype percent effect is at least 10%.
Not fulfilled

hey, is 5+ nucleoli phenotype percent effect for this one >= 10%? AGGGACGGGACGCGGUGCAGUG [hsa-miR-92b-5p]
Fulfilled

// inclusive: 5+ nucleoli phenotype percent effect at least 10%? input: UGAGGGGCAGAGAGCGAGACUUU [hsa-miR-423-5p]
Not fulfilled

Reported 5+ nucleoli phenotype percent effect reaches at least 10% for UUUGUAUGGAUAUGUGUGUGUAU [hsa-miR-3149] ?
Not fulfilled

Check the entry AAAACUGCAGUUACUUUUGC [hsa-miR-548av-3p] : does 5+ nucleoli phenotype percent effect equal or exceed 10%?
Fulfilled

5+ nucleoli phenotype percent effect >= 10% for UGCAACGAACCUGAGCCACUGA [hsa-miR-891a] ?
Not fulfilled

Say whether UCGGGCCUGGGGUUGGGGGAGC [hsa-miR-6749-5p] shows 5+ nucleoli phenotype percent effect of 10% or more.
Fulfilled

Please check the record UCAGUGCAUGACAGAACUUGG [hsa-miR-152] and state if its 5+ nucleoli phenotype percent effect is at or above 10%.
Fulfilled

Check this sequence for 5+ nucleoli phenotype percent effect at or above 10%: UAUGGUACUCCUUAAGCUAAC [hsa-miR-5579-5p]
Fulfilled

Check the entry UGGCAAGGAAAGAAGAGGAUCA [hsa-miR-6809-5p] : does 5+ nucleoli phenotype percent effect equal or exceed 10%?
Not fulfilled

Please tell me: is the sequence AGACAUCAAGAUCAGUCCCAAA [hsa-miR-3913-3p] at or over 10% in terms of 5+ nucleoli phenotype percent effect?
Fulfilled

Item CCAGUGACUGAGCUGGAGCCA [hsa-miR-5190] with 5+ nucleoli phenotype percent effect of 10% or above?
Not fulfilled

Dear colleague, could you confirm whether UUGGACUUUUUCAGAUUUGGGGAU [hsa-miR-5009-5p] has 5+ nucleoli phenotype percent effect at or above 10%?
Not fulfilled

Entry CACUGUUUCACCACUGGCUCUU [hsa-miR-4676-3p] : is its 5+ nucleoli phenotype percent effect no less than 10%?
Fulfilled

Form field: 5+ nucleoli phenotype percent effect at least 10%? Entry: UCUUCAACCUCAGGACUUGCA [hsa-miR-676-5p]
Fulfilled

Determine whether this sequence has 5+ nucleoli phenotype percent effect no lower than 10%: CAUAAAGUAGAAAGCACUACU [hsa-miR-142-5p]
Fulfilled

Could you please find out whether AGCUGGUGUUGUGAAUCAGGCCG [hsa-miR-138-5p] has 5+ nucleoli phenotype percent effect that meets 10% or exceeds it?
Not fulfilled

Hi team, for UGAGCCCCUGUGCCGCCCCCAG [hsa-miR-1225-3p] , is the recorded 5+ nucleoli phenotype percent effect at or above 10%?
Fulfilled

Tell me whether 5+ nucleoli phenotype percent effect is at least 10% here: AGAUUGUUUCUUUUGCCGUGCA [hsa-miR-4445-5p]
Not fulfilled
